Documented EC50 across a set of binders
study.system: T1, Recombinant human extracellular domain of IL13RA2-6His (27-343) (human, UniProt Q14627 27-343)
T1 construct: also called Human IL13RA2-6His; human IL13Rα2
T1 sequence: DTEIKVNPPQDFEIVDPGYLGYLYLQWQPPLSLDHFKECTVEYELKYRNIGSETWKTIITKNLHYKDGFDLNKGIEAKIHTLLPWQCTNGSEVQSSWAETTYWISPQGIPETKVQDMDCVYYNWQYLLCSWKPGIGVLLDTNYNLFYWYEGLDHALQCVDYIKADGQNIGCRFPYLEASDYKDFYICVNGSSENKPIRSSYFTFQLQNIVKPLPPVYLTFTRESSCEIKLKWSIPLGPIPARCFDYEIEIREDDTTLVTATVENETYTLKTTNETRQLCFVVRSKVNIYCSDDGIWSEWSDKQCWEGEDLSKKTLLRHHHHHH
protocol.summary: ELISA on coated IL13RA2-6His; antibody kept 8 days, column headed 'EC50 45° C.'
Please reply with the bare figure in µg/mL and do not write the unit itself.

# binder, recorded.number
records = [
    ("Clone 47 VHA / Clone 47 VKA1 (antibody, V domains shown, Expressed as IgG in Expi293 cells; also called VHA/VKA1) VH: QVQLVQSGAEVKKPGASVKVSCKASGYTFSNYLMNWVRQAPGQGLEWMGRIDPYDGDIDYNQNFKDRVTITRDTSASTAYMELSSLRSEDTAVYYCARGYGTAYGVDYWGQGTSVTVSS VL: EIVLTQSPATLSLSPGERATLSCRASESVDNYGISFMNWFQQKPGQAPRLLIYAASRQGSGIPDRFSGSGSGTDFTLTISRLEPEDFAVYYCQQSKEVPWTFGGGTKLEIK", 0.0123),
    ("Clone 47 VHAback / Clone 47 VKA (antibody, V domains shown, Expressed as IgG in Expi293 cells; also called VHAback/VKA) VH: QVQLVQSGAEVKKPGASVKVSCKASGYTFSNYLMNWVRQAPGQGLEWIGRIDPYDGDIDYNQNFKDRATLTVDKSASTAYMELSSLRSEDTAVYYCARGYGTAYGVDYWGQGTSVTVSS VL: EIVLTQSPATLSLSPGERATLSCRASESVDNYGISFMNWYQQKPGQAPRLLIYAASRQGSGIPDRFSGSGSGTDFTLTISRLEPEDFAVYYCQQSKEVPWTFGGGTKLEIK", 0.0164),
    ("Clone 47 VHA3 / Clone 47 VKA2 (antibody, V domains shown, Expressed as IgG in Expi293 cells; also called VHA3/VKA2) VH: QVQLVQSGAEVKKPGASVKVSCKASGYTFSNYLMNWVRQAPGQGLEWMGRIDPYDGDIDYNQNFKDRVTITRDKSASTAYMELSSLRSEDTAVYYCARGYGTAYGVDYWGQGTSVTVSS VL: EIVLTQSPATLSLSPGERATLSCRASESVDNYGISFMNWYQQKPGQAPRLLIYAASRQGSGIPDRFSGSGSGTDFTLTISRLEPEDFAVYFCQQSKEVPWTFGGGTKLEIK", 0.0123),
    ("Clone 47 VHAback / Clone 47 VKA1 (antibody, V domains shown, Expressed as IgG in Expi293 cells; also called VHAback/VKA1) VH: QVQLVQSGAEVKKPGASVKVSCKASGYTFSNYLMNWVRQAPGQGLEWIGRIDPYDGDIDYNQNFKDRATLTVDKSASTAYMELSSLRSEDTAVYYCARGYGTAYGVDYWGQGTSVTVSS VL: EIVLTQSPATLSLSPGERATLSCRASESVDNYGISFMNWFQQKPGQAPRLLIYAASRQGSGIPDRFSGSGSGTDFTLTISRLEPEDFAVYYCQQSKEVPWTFGGGTKLEIK", 0.0128),
    ("Clone 47 VHA / Clone 47 VKA2 (antibody, V domains shown, Expressed as IgG in Expi293 cells; also called VHA/VKA2) VH: QVQLVQSGAEVKKPGASVKVSCKASGYTFSNYLMNWVRQAPGQGLEWMGRIDPYDGDIDYNQNFKDRVTITRDTSASTAYMELSSLRSEDTAVYYCARGYGTAYGVDYWGQGTSVTVSS VL: EIVLTQSPATLSLSPGERATLSCRASESVDNYGISFMNWYQQKPGQAPRLLIYAASRQGSGIPDRFSGSGSGTDFTLTISRLEPEDFAVYFCQQSKEVPWTFGGGTKLEIK", 0.0204),
]

EC50 for Clone 47 VHA / Clone 47 VKA (HuCL47) (antibody, V domains shown, Expressed as IgG in Expi293 cells; also called VHA/VKA; VHANKA) VH: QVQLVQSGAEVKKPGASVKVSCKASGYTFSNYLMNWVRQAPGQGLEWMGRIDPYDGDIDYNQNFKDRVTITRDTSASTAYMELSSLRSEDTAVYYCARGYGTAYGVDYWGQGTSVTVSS VL: EIVLTQSPATLSLSPGERATLSCRASESVDNYGISFMNWYQQKPGQAPRLLIYAASRQGSGIPDRFSGSGSGTDFTLTISRLEPEDFAVYYCQQSKEVPWTFGGGTKLEIK ?
0.0184
